Measured values drawn from ChEMBL document CHEMBL4304797 for this set.

ChromLogD: recorded values
# assayName: Lipophilicity, chromatographic logD of compound at pH 7.4
# studyConditions: buffer
measurementLabel: ChromLogD

[[record]]
compound = "N#Cc1ccc2ncn(C[C@H]3CCC[C@]4(C3)CN(c3ccccc3)C(=O)O4)c2c1"
val = 4.6

[[record]]
compound = "Cc1ccccc1N1C[C@@]2(CCC[C@](C)(Cn3cnc4ccc(C#N)cc43)C2)OC1=O"
val = 4.8

[[record]]
compound = "C[C@]1(Cn2cnc3ccc(C#N)cc32)CCC[C@@]2(CN(c3ccccc3Cl)C(=O)O2)C1"
val = 4.8

[[record]]
compound = "COc1ccccc1N1C[C@@]2(CCC[C@](C)(Cn3cnc4ccc(C#N)cc43)C2)OC1=O"
val = 4.6

[[record]]
compound = "Cc1ccccc1N1C[C@@]2(CCC[C@H](Cn3cnc4ccc(C#N)cc43)C2)OC1=O"
val = 4.6

[[record]]
compound = "CCOc1ccc(N2C[C@@]3(CCC[C@H](Cn4cnc5ccc(C#N)cc54)C3)OC2=O)cc1"
val = 4.8

[[record]]
compound = "C[C@]1(Cn2cnc3ccc(C#N)cc32)CCC[C@@]2(CN(c3cccc(Cl)c3)C(=O)O2)C1"
val = 5.7

[[record]]
compound = "CC(C)(O)c1cnc(N2C[C@@]3(CCC[C@](C)(Cn4cnc5ccc(C#N)cc54)C3)OC2=O)cn1"
val = 4

[[record]]
compound = "COc1cnc(N2C[C@@]3(CCC[C@](C)(Cn4cnc5ccc(C#N)cc54)C3)OC2=O)cn1"
val = 4.8

[[record]]
compound = "N#Cc1ccc2ncn(C[C@H]3CCC[C@]4(C3)CN(c3ccc(F)cc3)C(=O)O4)c2c1 (racemic)"
val = 4.5

[[record]]
compound = "C[C@]1(Cn2cnc3ccc(C#N)cc32)CCC[C@@]2(CN(c3ccc(F)cc3)C(=O)O2)C1"
val = 4.9

[[record]]
compound = "N#Cc1ccc2ncn(C[C@H]3CCC[C@]4(C3)CN(c3ccccc3Cl)C(=O)O4)c2c1"
val = 4.3

[[record]]
compound = "CCOc1ccc(N2C[C@@]3(CCC[C@](C)(Cn4cnc5ccc(C#N)cc54)C3)OC2=O)cc1"
val = 5.4

[[record]]
compound = "CCOc1cccc(N2C[C@@]3(CCC[C@H](Cn4cnc5ccc(C#N)cc54)C3)OC2=O)c1"
val = 5

[[record]]
compound = "CCOc1cnc(N2C[C@@]3(CCC[C@](C)(Cn4cnc5ccc(C#N)cc54)C3)OC2=O)cn1"
val = 5.5

[[record]]
compound = "CC(C)(C)c1cnc(N2C[C@@]3(CCC[C@](C)(Cn4cnc5ccc(C#N)cc54)C3)OC2=O)cn1"
val = 6.3

[[record]]
compound = "N#Cc1ccc2ncn(C[C@H]3CCC[C@]4(C3)CN(c3cccc(Cl)c3)C(=O)O4)c2c1"
val = 5.3

[[record]]
compound = "CC(C)(C)CN1C[C@@]2(CCC[C@H](C(C)(C)n3cnc4ccc(C#N)cc43)C2)OC1=O (racemic)"
val = 4.6

